Would you mind telling me the reported normalised percent inhibition of each entry?
Test system: NanoLuc luciferase (NLuc)
Assay: normalised percent inhibition of luminescence (vs positive and negative controls); higher = stronger inhibition
Conditions: metal salt concentration 0.5 mM; 100 mM HEPES buffer
Please give a number only; it is taken to be in %.

[Q] Form field - read-out: normalised percent inhibition; system: NanoLuc luciferase (NLuc); submitted item: [Cl][Fe]([Cl])[Cl] [iron(III) chloride]
[A] 99.7

[Q] Query [Cl][Pt-2]([Cl])([Cl])[Cl].[K+].[K+] [potassium tetrachloroplatinate(II)] next
[A] 76.6

[Q] How about O=[N+]([O-])[O-].O=[N+]([O-])[O-].[Cd+2] [cadmium nitrate] ?
[A] 18.6

[Q] Follow-up item: O=[N+]([O-])[O-].[Ag+] [silver nitrate]
[A] 102

[Q] Item: O=[N+]([O-])[O-].O=[N+]([O-])[O-].[Cu+2] [copper(II) nitrate]
[A] 101

[Q] Try [Cl][Fe][Cl] [iron(II) chloride] next.
[A] 61.9

[Q] Would you kindly repeat that for [Cl][Sn][Cl] [tin(II) chloride] ?
[A] -1.5

[Q] Then O=S(=O)([O-])[O-].[Fe+2] [iron(II) sulfate] ?
[A] 67.9

[Q] Please give the result for CC#N.CC#N.CC#N.CC#N.F[B-](F)(F)F.[Cu+] [tetrakis(acetonitrile)copper(I) tetrafluoroborate] too.
[A] 102

[Q] Please do the same for O.O.O.O.O.O.O.O=S(=O)([O-])[O-].[Mg+2] [magnesium sulfate] as well.
[A] 1.22
